Recorded values, source PubChem BioAssay (NCI).

- Assay details: NCI Yeast Anticancer Drug Screen. Data for the mec2-1 strain (AID 157)
- Condition label: S. cerevisiae mec2-1 strain, at 5.0 µM (retest, dose inferred, filed as 0.5)
This is part of a sample that, as a whole, favours compounds with a hit. Of some 79,000 tested, about 15% had one in any assay. Active and inactive are the calls of the source. No stated cut-off is given here; in the data, active means growth inhibition above about 70%; inactive means the rest.
Just give me one of these, please: yes (active), no (inactive)

Answered examples (3):
Problem: What call does the record list for `CCOC(=O)c1c(Cl)nc2ccccc2c1N=[N+]=[N-]` ?
Result: no

Problem: What call does the record list for `Cc1cc(C)nc(NS(=O)(=O)c2ccc(Nc3nc(-c4cccc([N+](=O)[O-])c4)cs3)cc2)n1` ?
Result: no

Problem: What call does the record list for COC12C=CC(CC1)c1c2c(O)c2ncccc2c1O (stereo unspecified) ?
Result: no

---
Problem: What call does the record list for `CC(=O)Sc1ccccc1C(=O)NCc1ccc(Cl)cc1` ?
Result: no

Problem: What call does the record list for `Oc1ccc(N=Nc2cc(Cl)ccc2Cl)cc1` ?
Result: yes

Problem: What call does the record list for `COc1ccc2c(c1)[n+]([O-])c(C(N)=O)c(N)[n+]2[O-]` ?
Result: no

====

- Assay details: NCI Yeast Anticancer Drug Screen. Data for the mec2-1 strain (AID 157)
- Condition label: S. cerevisiae mec2-1 strain, at 50.0 µM (retest, dose inferred, filed as 5.0)
- Procedure: Growth inhibition of yeast strains with defined genetic alterations is measured as a screen for potential anti-cancer activity. Selected strains with alterations in DNA damage repair or cell cycle control were exposed to compounds and growth inhibition was measured relative to vehicle treated controls. The strain used in this assay is mec2-1
Compounds without any hit were thinned out: in the full panel of roughly 79,000, 15% have a hit. Activity calls are given as the source filed them. No stated cut-off is given here; in the data, active means growth inhibition above about 70%; inactive means the rest.
Just give me one of these, please: y (active), n (inactive)

Answered examples (10):
Problem: What call does the record list for `[N-]=[N+]=Nc1c([N+](=O)[O-])c(=O)n(-c2ccccc2)c2ccccc12` ?
Result: n

Problem: What call does the record list for CCCOC(=O)C(Br)C(Br)C(=O)OCCC (stereo not drawn) ?
Result: y

Problem: What call does the record list for `CC(=O)Oc1cccc2c(OC(C)=O)cccc12` ?
Result: y

Problem: What call does the record list for OC1(c2ccccc2)CN(CCl)CC(c2ccccc2)O1 (stereo not drawn) ?
Result: n

Problem: What call does the record list for `CCCCCCCCCCCCOC(=O)C[n+]1cccc(C(N)=O)c1` ?
Result: y

Problem: What call does the record list for `CCOCCNc1ncnc2c1cnn2C` ?
Result: n

Problem: What call does the record list for `CN(C)C(=O)/C=C/c1c[nH]c(=O)[nH]c1=O` ?
Result: n

Problem: What call does the record list for `ClC/C=C/c1ccccc1` ?
Result: n

Problem: What call does the record list for `CCOc1ccccc1N=Nc1ccc2oc(=O)c(C(=O)Nc3cccc(C)c3)cc2c1` ?
Result: n

Problem: What call does the record list for `Oc1ccc2cc(Br)ccc2c1` ?
Result: y

---
Problem: What call does the record list for `Cc1ccsc1/C=N/Nc1cc(C)c2cccc(C)c2n1` ?
Result: n

Problem: What call does the record list for CCC(/C=C/C(C)C1CCC2C3CC=C4C/C(=N/NC(N)=O)CCC4(C)C3CCC12C)C(C)C (stereo not drawn) ?
Result: n
